# maps each entry to its Proportion of chimeric antibody positive cells to B cells (%) at 100 nM
Biological target: T1, cynomolgus monkey CD19 on peripheral blood B cells (cynomolgus monkey (Macaca fascicularis), UniProt A0A2K5W8L9 20-557)
T1 construct: whole, on cells; also called cynomolgus monkey B cells
T1 sequence: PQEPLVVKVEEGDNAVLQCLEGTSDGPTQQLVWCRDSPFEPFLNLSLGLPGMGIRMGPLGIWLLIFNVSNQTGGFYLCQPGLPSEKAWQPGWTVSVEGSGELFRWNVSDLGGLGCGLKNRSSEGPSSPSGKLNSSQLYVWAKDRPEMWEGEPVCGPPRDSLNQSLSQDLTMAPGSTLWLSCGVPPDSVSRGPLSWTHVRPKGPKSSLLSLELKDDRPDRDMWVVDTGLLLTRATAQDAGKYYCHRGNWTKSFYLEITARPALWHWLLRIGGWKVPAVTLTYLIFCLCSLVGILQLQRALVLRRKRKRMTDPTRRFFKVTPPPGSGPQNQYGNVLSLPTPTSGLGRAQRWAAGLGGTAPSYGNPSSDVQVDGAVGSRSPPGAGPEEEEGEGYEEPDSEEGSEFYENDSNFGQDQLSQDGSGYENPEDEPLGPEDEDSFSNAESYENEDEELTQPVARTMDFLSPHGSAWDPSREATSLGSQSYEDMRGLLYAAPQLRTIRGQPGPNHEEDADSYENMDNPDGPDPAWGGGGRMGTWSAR
Experiment: FACS, cynomolgus PBMC, CD20+ B cells
Kindly answer with a numeric value in %, unit omitted.

Some entries whose results are on file:
[
  {
    "BINDER": "F4.37.6 (antibody, human IgG1, V domains shown, human-murine chimeric antibody, human IgG1) VH: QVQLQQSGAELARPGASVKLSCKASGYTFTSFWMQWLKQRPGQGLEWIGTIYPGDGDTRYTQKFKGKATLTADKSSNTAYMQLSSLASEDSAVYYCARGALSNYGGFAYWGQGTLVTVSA VL: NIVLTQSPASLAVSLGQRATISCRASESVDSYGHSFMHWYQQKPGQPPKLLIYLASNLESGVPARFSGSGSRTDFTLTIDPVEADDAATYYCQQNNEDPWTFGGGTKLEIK",
    "READOUT VALUE": 6
  },
  {
    "BINDER": "F4.35.5 (antibody, human IgG1, V domains shown, human-murine chimeric antibody, human IgG1) VH: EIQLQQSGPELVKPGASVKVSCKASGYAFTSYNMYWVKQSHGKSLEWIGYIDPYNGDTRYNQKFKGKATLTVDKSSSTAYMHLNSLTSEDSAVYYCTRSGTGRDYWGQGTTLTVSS VL: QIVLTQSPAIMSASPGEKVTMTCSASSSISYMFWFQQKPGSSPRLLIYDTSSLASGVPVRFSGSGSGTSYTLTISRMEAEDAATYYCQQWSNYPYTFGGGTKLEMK",
    "READOUT VALUE": 3
  }
]

Data point: F3.121.4 (antibody, human IgG1, V domains shown, human-murine chimeric antibody, human IgG1) VH: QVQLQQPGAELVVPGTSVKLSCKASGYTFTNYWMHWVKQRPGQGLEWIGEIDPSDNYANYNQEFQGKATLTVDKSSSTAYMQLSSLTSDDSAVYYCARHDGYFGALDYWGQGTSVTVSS VL: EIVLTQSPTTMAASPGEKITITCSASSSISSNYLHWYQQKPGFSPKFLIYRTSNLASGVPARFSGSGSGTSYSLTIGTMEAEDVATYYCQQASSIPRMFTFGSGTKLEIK ; Proportion of chimeric antibody positive cells to B cells (%) at 100 nM = 2
